Below, each entry is listed with its recorded melting point.

Here is how some molecules turned out for melting point.
O=[N+]([O-])c1cc(C(F)(F)F)ccc1SCc1ccccc1 | 132 to 136 °C
Cc1cnc(Cl)c(C(=O)N(C)C)c1 | 117 to 119 °C
CCCNC(=O)N(CC(=O)OCC)CC1CC2c3cccc4[nH]cc(c34)CC2N(C)C1 (centres undefined) | 109 to 110 °C

Prompt: Suppose we examine the molecule CC(=O)NC[C@H]1CN(c2ccc(N3CCC(n4nnnc4Cc4cccs4)CC3)c(F)c2)C(=O)O1 ; what melting point value has been reported?
Response: 149 to 150 °C

----------
MEASUREMENT_TYPE: melting point

O=C(OCC(=O)c1ccccc1[N+](=O)[O-])c1ccccc1 | 77 to 80 °C
O=C(CCCc1ccccc1)N[C@H](Cc1cccc(C(F)(F)F)c1)[C@@H](O)c1ccc(F)cc1 (racemic) | 110 to 111 °C
CS(=O)(=O)c1ccc(-n2cnc(Cl)c2-c2cnc(Cl)c(Cl)c2)cc1 | 223 to 230 °C
Cc1c(-c2ccncc2)sc(-c2ccncc2)c1CF | 148 °C
CCOC(=O)CCCCCCC(NC(N)=O)C(=O)OCC (configuration not stated) | 79 to 80 °C

Then there is this compound:
Prompt: Suppose we examine the compound Cc1ccc(CC2(OCc3ccccc3)CCN(CC3Cc4cc(O)ccc4C3O)CC2)cc1 (configuration not stated) ; what melting point value has been reported?
Response: 131 to 132 °C
